- experimental-system: Tth DNA polymerase (UniProt P52028 P52028:1-834)
- Sequence (P52028 whole entry, one chain of several): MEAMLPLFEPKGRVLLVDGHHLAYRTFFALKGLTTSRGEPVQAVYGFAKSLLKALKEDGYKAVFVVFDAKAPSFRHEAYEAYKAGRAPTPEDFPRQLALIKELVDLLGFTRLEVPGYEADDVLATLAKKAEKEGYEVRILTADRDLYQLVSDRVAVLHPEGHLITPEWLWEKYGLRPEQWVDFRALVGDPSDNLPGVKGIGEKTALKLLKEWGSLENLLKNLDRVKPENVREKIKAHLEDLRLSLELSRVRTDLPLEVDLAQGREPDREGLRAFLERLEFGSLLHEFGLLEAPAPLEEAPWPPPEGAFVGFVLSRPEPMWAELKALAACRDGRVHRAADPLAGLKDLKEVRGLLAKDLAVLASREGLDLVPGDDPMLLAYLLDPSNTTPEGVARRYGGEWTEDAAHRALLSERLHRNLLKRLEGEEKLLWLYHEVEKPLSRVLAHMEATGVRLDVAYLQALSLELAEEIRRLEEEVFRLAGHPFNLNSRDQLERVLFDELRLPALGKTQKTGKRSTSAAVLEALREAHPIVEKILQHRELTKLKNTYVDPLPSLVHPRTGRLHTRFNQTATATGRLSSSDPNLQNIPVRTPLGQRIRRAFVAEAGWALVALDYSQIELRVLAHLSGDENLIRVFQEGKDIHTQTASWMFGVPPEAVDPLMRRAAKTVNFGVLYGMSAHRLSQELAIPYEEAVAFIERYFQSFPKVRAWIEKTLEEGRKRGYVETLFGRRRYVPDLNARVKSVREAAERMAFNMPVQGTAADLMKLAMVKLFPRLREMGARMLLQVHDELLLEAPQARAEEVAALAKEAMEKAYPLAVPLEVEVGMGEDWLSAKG
- method: inhibition; room temperature; IT50 29 C
- condition-details: tags: rTth, 94 kDa, Roche Molecular Systems / Perkin Elmer
pIC50: −log10 of the molar value.
pIC50 values for the binders below.

binder: TQ21 (ssDNA) DNA: TTCTCGGTTGGTCTCTGGCGGAGCGATCATCTCAGAGCATTCTTAGCGTTTTGTTCTTGTGTATGATTCGCTTTTCCC
pIC50: 7.44
//
binder: TQ30 (ssDNA) DNA: TTCTCGGTTGGTCTCTGGCGGAGCAAGACCAGACAATGTACAGTATTGGCCTGATCTTGTGTATGATTCGCTTTTCCC
pIC50: 7.22

Attribution: patent US6020130
